Entries and their IC50
Test system: human breast cancer cells MDA-MB-468
Test: Cytotoxicity test for compounds (CellTiter-Glo cell proliferation inhibition)
Type: cell-based
Details: Homo sapiens, MDA-MB-468, 72 h, read-out: MDA-MD-468/IC50 (nM)
Method: Biological Test Example 1: Cytotoxicity Test for Compounds • 96-well clear flat-bottom white plate (Corning, #3610) • RPMI1640 culture medium (Gibco, #A10491-01) • Fetal Bovine Serum (Sigma-Aldrich, #F8687-500ML) • CellTiter-Glo® Luminescent Cell Viability Assay (Promega, # G7572/G7571) […] After 3 days of incubation, 100.0 µL/well of CellTiter-Glo™ (Promega, Cat. No.: G7572/G7571) working solution was added. […] After 10 min, the plate was read on a microplate reader. […]

Recorded IC50, per entry:
structure: CC[C@H](C)[C@@H]([C@@H](CC(=O)N1CCC[C@H]1[C@H](OC)[C@@H](C)C(=O)OCCc1cccc(N)c1)OC)N(C)C(=O)[C@@H](NC(=O)[C@H](C(C)C)N(C)C)C(C)C
IC50: 0.56 nM

structure: C#CC[C@H](Cc1cccc(N)c1)OC(=O)[C@H](C)[C@@H](OC)[C@@H]1CCCN1C(=O)C[C@@H](OC)[C@H]([C@@H](C)CC)N(C)C(=O)[C@@H](NC(=O)[C@H](C(C)C)N(C)C)C(C)C
IC50: < 0.0256 nM

Attention now shifts to the item below.
For the record "CC[C@H](C)[C@@H]([C@@H](CC(=O)N1CCC[C@H]1[C@H](OC)[C@@H](C)C(=O)O[C@H](CF)Cc1cccc(N)c1)OC)N(C)C(=O)[C@@H](NC(=O)[C@H](C(C)C)N(C)C)C(C)C" , what value of IC50 is listed for human breast cancer cells MDA-MB-468? < 0.0256 nM

---

tested on: human breast cancer cells MDA-MB-468; experiment: Cytotoxicity test for compounds (CellTiter-Glo cell proliferation inhibition); assay type: cell-based; conditions: Homo sapiens, MDA-MB-468, 72 h, 3 days of incubation; CellTiter-Glo; read-out: MDA-MD-468/IC50
Non-standard residues stand in square brackets, D forms with d. Residues, ends and D or L forms follow the SMILES beside them. *: point of attachment. Dolaproine = CO[C@@H]([C@@H]1CCCN1)[C@@H](C)C(=O)O; Dil = CC[C@H](C)[C@H](NC)[C@@H](CC(=O)O)OC; Phe(3-NH2) = Nc1cccc(C[C@H](N)C(=O)O)c1; NMe2Val = CC(C)[C@@H](C(=O)*)N(C)C
assay_readout: IC50
Answer format: value, then unit.

Recorded IC50, per entry:
compound: C=CCN(CCc1cccc(N)c1)C(=O)[C@H](C)[C@@H](OC)[C@@H]1CCCN1C(=O)C[C@@H](OC)[C@H]([C@@H](C)CC)N(C)C(=O)[C@@H](NC(=O)[C@H](C(C)C)N(C)C)C(C)C
IC50: 8.81 nM
--
compound: CC[C@H](C)[C@@H]([C@@H](CC(=O)N1CCC[C@H]1[C@H](OC)[C@@H](C)C(=O)N[C@@H](Cc1cccc(N)c1)C(=O)NC)OC)N(C)C(=O)[C@@H](NC(=O)[C@H](C(C)C)N(C)C)C(C)C [Example 4] (NMe2Val-V[Dil][Dolaproine][Phe(3-NH2)]-NHMe)
IC50: 6.12 nM
--
compound: C#CCN(CCc1cccc(N)c1)C(=O)[C@H](C)[C@@H](OC)[C@@H]1CCCN1C(=O)C[C@@H](OC)[C@H]([C@@H](C)CC)N(C)C(=O)[C@@H](NC(=O)[C@H](C(C)C)N(C)C)C(C)C
IC50: 12.6 nM
--
compound: CC[C@H](C)[C@@H]([C@@H](CC(=O)N1CCC[C@H]1[C@H](OC)[C@@H](C)C(=O)N1CCS(=O)(=O)[C@@H](c2cccc(N)c2)C1)OC)N(C)C(=O)[C@@H](NC(=O)[C@H](C(C)C)N(C)C)C(C)C (single isomer, unassigned) [Example 61-P2]
IC50: 13.3 nM

Attention now shifts to the item below.
For the record "CC[C@H](C)[C@@H]([C@@H](CC(=O)N1CCC[C@H]1[C@H](OC)[C@@H](C)C(=O)O[C@H](C)Cc1cccc(N)c1)OC)N(C)C(=O)[C@@H](NC(=O)[C@H](C(C)C)N(C)C)C(C)C" , what value of IC50 is listed for human breast cancer cells MDA-MB-468? 3 nM
